# Tested on: V-C8 + BRCA2 (BRCA2-proficient hamster cells)
# experimental.details: normalised cell viability (fraction of plate median); higher = more viable cells (less toxic)
# condition.parameters: treatment time: 3 days; 5 µM
Where a name gives a salt, the structure may show the parent alone. Whole data set: some 1,300 compounds, median “normalised cell viability” near 1, cut for the lowest 2% near 0.15. The entries come from a sample that favours the lowest values as a whole.
Property: normalised cell viability; scope: individual molecules
observation.type: normalised cell viability

- Cn1cnc([N+](=O)[O-])c1Sc1ncnc2[nH]cnc12 [Azathioprine]: 0.93
- N=C(N)N/N=C/c1c(Cl)cccc1Cl [Guanabenz acetate]: 1.1
- COC(=O)C1=C(C)NC(C)=C(C(=O)OC2CCCN(Cc3ccccc3)C2)C1c1cccc([N+](=O)[O-])c1 (centres undefined) [Benidipine hydrochloride]: 0.988
- CC(C)(C)NCC(O)c1cc(O)cc(O)c1 (centres undefined) [Terbutaline hemisulfate]: 0.45
